Could you please report measured inhibition of growth at 30 µM for the items listed next?
- Test system: Staphylococcus aureus
- experimental_details: Antibacterial activity against methicillin-resistant Staphylococcus aureus assessed as growth inhibition at 30 uM measured every 2 mins for 16 to 20 hrs by spectramax 96-well plate reader analysis
- Assay type: functional
- test_parameters: read-out: GI
Answer by giving the amount and then stating its unit.

Here are 3 compounds together with their reported answers.
O=C(O)C(Cc1ccccc1)N1C(=O)/C(=C\c2ccc(-c3ccc(Cl)cc3)s2)NC1=S (stereo not given)
90%
O=C(O)C(Cc1ccccc1)N1C(=O)/C(=C\c2ccc(-c3cc(Cl)cc(Cl)c3)o2)NC1=S (stereo not given)
90%
O=C(O)C(Cc1ccccc1)N1C(=O)/C(=C\c2ccc(-c3ccccc3)o2)NC1=S (stereo not given)
10%

List inhibition of growth at 30 µM for every entry below, keeping the order given.
1. O=C(O)C(Cc1ccccc1)N1C(=O)/C(=C\c2ccc(-c3ccc(Cl)c(Cl)c3)s2)NC1=S (stereo not given)
2. NC(=O)C(Cc1ccccc1)N1C(=O)/C(=C\c2ccc(-c3ccc(Cl)c(Cl)c3)o2)NC1=S (stereo not given)

40%
60%

Where these numbers come from: ChEMBL document CHEMBL3098130
